Data provenance is the supplement of paper PMC9170038.

- Tested on: MS2 coat protein
- Assay method text: apparent KD of MS2 coat protein; designed switch direction (-1 OFF switch, 1 ON switch): -1; higher = weaker reporter binding
- Assay setup: input ligand: FMN 200 uM
Test readout: apparent KD of MS2 coat protein (nM)
Give bare numbers, in nM.

Previously resolved entries follow.
CUGCUCCGUGUAGGAUAUGCAUAUUCCCAUUAUGCAGAAGGACAUGAGGAUCACCCAUGUAUGUUAUUAUCAUGUGUUGCAUGC [Design 10] (Eterna round: R96, puzzle: Exclusion NG 1); 146
UAUAUAUAGUAAGGAUAUGUAUUUAUCUUAUAAACAGAAGGUACUGACAUGAGGAUCACCCAUGUUUUAGUGUGGGCAUGUAGA [JMF's solution 17] (Eterna round: R96, puzzle: Exclusion NG 1); 59.9
UACUGGACAGGAUAUGUUCUUGAGCACUUGAGGAUCACCCAAGUCAUCAAGAACUCAGGCACAGAAGGGUUUAUGA [salish99_ex5_r4_004] (Eterna round: R97, puzzle: Exclusion 5); 22
CGCCGAGUGUUAGGAUAUCACAAGCAUAAGCGGUGAGAAGGAACAUGAGGAUCACCCAUGUACUGUCCCAUCGGGACAGGUUUC [Ribeon] (Eterna round: R96, puzzle: Exclusion NG 1); 170

Turning now to a further record.
Request: Fill in: apparent KD of MS2 coat protein of AAGAAACAUGAGGAUCACCCAUGUGAGGAUAUGGCCCGCCCGGCGUGAGCUGGUUUUGUCAGAAGGCACAAAGG [salish99_ex1_r4_017] (Eterna round: R97, puzzle: Exclusion 1) is ___
Result: 104

----------
- Tested on: K4 kissing-loop RNA reporter;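 note: bound reporter read as fluorescence of individual clusters on recovered sequencing chips by microscopy, with normalized cluster intensities fitted with a binding model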
- Assay method text: apparent KD of K4 kissing-loop reporter; higher = weaker reporter binding
- Assay setup: Eterna round: R107; input ligand: tryptophan 2.4 mM
Classify by apparent KD of K4 kissing-loop reporter. Ranges: class A: < 200 nM; class B: ≥ 200 nM and < 400 nM; class C: ≥ 400 nM

Completed entries (count: 3):
GGACGACAGUCGGCCGCCACUCACAGCCGCCAGUGAUGUUGGAUUGUAGCGGAGUGAUGUUUCGCGAGGACCGGGACUGCAGUCC [Same State Tryptophan B GF 15]; class C
AAUAGGGAUAGUGAUGUUAUCCCUUAUGAUACCAGUGCCAUCGGACACCCUUGGCAGCAUACGGGCAGUGAUGUUGUCCUUGGUG [Exclusion Theophylline A GF 16]; class A
AGUGAUGUUUUUUUUAAGAGUGAUGUUUUUCGAGGACCGGUACGGCCGCCACUCGAGUGAUGAGUGCGUUGUUGUGAUGUUUAGU [#11 K4 Tryptophan A Exclusion]; class B

Request: Using the reported apparent KD of K4 kissing-loop reporter, which band applies to `GCCGUAGAUUGAAGGAGCGGUAUGGGCGUUGGCUGAGUGAUGUUCAGGAAAAGUGGCUUCUACCAGGUAGGUCGCAAUCUACGGC` ?
Result: class A

Request: Using the reported apparent KD of K4 kissing-loop reporter, which band applies to AAAAUAAAUAGCAGUCACGGAGUGAUGUUCCGAGGACCGGUACGGCCGCCACUCGACCAUCAUAAGAUGGAAUGGCGAGACUGCA [#SwitchBubble 21 #K4Early] ?
Result: class B

Request: Using the reported apparent KD of K4 kissing-loop reporter, which band applies to CGGUUAUAGCAGGAUACCAGUACCCAUUAUGUACGUUUAUAGUAGAGUGAUGUUCUAAAGUACCCUUGGCAGCUUCCCGUGACCC [#23 K4 Theophylline B Exclusion] ?
Result: class A

Request: Using the reported apparent KD of K4 kissing-loop reporter, which band applies to UAAUAAAUUCCAGCGAUAUCGCUCUUCGAAGGAGCGGGCGAAAGUCCAGGUAGGUCGCGGAGAGUGAUGUUCUUUGCGGCGCUGG [whbob_Ex_Arginine_A_2t134] ?
Result: class B

Request: Using the reported apparent KD of K4 kissing-loop reporter, which band applies to AAUGAGGACACUUGCAACAGUCCUCGAAUACGAGGACCGGUACGGCCGCCACUCGAUAACUUGCAGUGAUGUUGCAAGUAAGAAU [(T)''-(K)'-(T)'-(T1)-(T2)-(K1)-(K2)_Design2] ?
Result: class B
